All values here come from patent US4973679A.

Provide the recorded t1/2 in ZnBr2 for the entries that follow.
# assay-overview: Lewis acid (ZnBr2) hydrolysis rates of triarylmethyl groups attached to the 5'-hydroxyl of deoxynucleosides
# Type: physicochemical
# settings: 0.08 M ZnBr2 in nitromethane; tlc, HCl vapors
Record the value in s, omitting the unit from your answer.

Input: Quick one: t1/2 in ZnBr2 for `COc1ccc(C(OC[C@H]2O[C@@H](n3cnc4c(=O)[nH]c(NC(=O)C(C)C)nc43)C[C@@H]2O)(c2ccccc2)c2ccc(OC)cc2)cc1` ?
Output: 20

Input: Quick one: t1/2 in ZnBr2 for `COc1ccc(C(OC[C@H]2O[C@@H](n3ccc(NC(=O)c4ccccc4)nc3=O)C[C@@H]2O)(c2ccccc2)c2ccc(OC)cc2)cc1` ?
Output: 45

Input: Quick one: t1/2 in ZnBr2 for `COc1ccccc1C(OC[C@H]1O[C@@H](n2ccc(NC(=O)c3ccccc3)nc2=O)C[C@@H]1O)(c1ccccc1OC)c1cccc2ccccc12` ?
Output: 30

* * *

# assay-overview: Lewis acid (ZnBr2) hydrolysis rates of triarylmethyl groups attached to the 5'-hydroxyl of deoxynucleosides
# Format: physicochemical
# settings: 0.08 M ZnBr2 in nitromethane; tlc, HCl vapors
Provide the recorded t1/2 in ZnBr2 for the entries that follow.
The reply should consist of the numeric value with the unit placed after it.

Input: Quick one: t1/2 in ZnBr2 for COc1ccccc1C(OC[C@H]1O[C@@H](n2cnc3c(=O)[nH]c(NC(=O)C(C)C)nc32)C[C@@H]1O)(c1ccccc1)c1ccccc1OC [R1 = R2 = b; R3 = a; G] ?
Output: 20 s

Input: Quick one: t1/2 in ZnBr2 for Cc1ccc(C(OC[C@H]2O[C@@H](n3cnc4c(NC(=O)c5ccccc5)ncnc43)C[C@@H]2O)(c2ccccc2)c2ccccc2)cc1 [R1 = h; R2 = R3 = a; A] ?
Output: 45 s

Input: Quick one: t1/2 in ZnBr2 for COc1ccc(C(OC[C@H]2O[C@@H](n3cc(C)c(=O)[nH]c3=O)C[C@@H]2O)(c2ccccc2)c2ccc(OC)cc2)cc1 [R1 = R2 = c; R3 = a; T] ?
Output: 60 s

Input: Quick one: t1/2 in ZnBr2 for COc1ccc(C(OC[C@H]2O[C@@H](n3cc(C)c(=O)[nH]c3=O)C[C@@H]2O)(c2ccccc2)c2cccc3ccccc23)cc1 (stereo partly shown) [R1 = n; R2 = c; R3 = a; T] ?
Output: 60 s

Input: Quick one: t1/2 in ZnBr2 for COc1ccc(C(OC[C@H]2O[C@@H](n3cnc4c(NC(=O)c5ccccc5)ncnc43)C[C@@H]2O)(c2ccccc2)c2ccc(OC)cc2)cc1 [R1 = R2 = c; R3 = a; A] ?
Output: 20 s

Input: Quick one: t1/2 in ZnBr2 for COc1ccccc1C(OC[C@H]1O[C@@H](n2cc(C)c(=O)[nH]c2=O)C[C@@H]1O)(c1ccccc1OC)c1cccc2ccccc12 [R1 = R2 = b; R3 = n; T] ?
Output: 30 s

Input: Quick one: t1/2 in ZnBr2 for Cc1cn([C@H]2C[C@H](O)[C@@H](COC(c3ccccc3)(c3ccc(F)cc3)c3cccc4ccccc34)O2)c(=O)[nH]c1=O (stereo partly shown) [R1 = n; R2 = e; R3 = a; T] ?
Output: 60 s
